# EXPERIMENT_DESCRIPTION: solubility L in ZLI 1840 at room temperature
# Type: physicochemical
# STATED_CONDITIONS: ZLI 1840 (Merck), stirred 1 week
What Solubility L was measured for each of the following?

Consider the reported Solubility L for these compounds:
Q. Tell me the measured Solubility L of `CCOC(=O)c1nn(-c2ccc(N=Nc3cc(C)c(N=Nc4ccc(N(C)C)cc4)cc3C)cc2)nc1C` , please.
A. 0,2%

Q. # iterate: `Cc1nn(-c2cc(Br)c(N=Nc3ccc(N=Nc4ccc(N(C)C)cc4)cc3)c(Br)c2)nc1C`
A. 1,8%

Q. # iterate: `CCCCN(CCCC)c1ccc(N=Nc2ccc(N=Nc3ccc(-n4nc5ccc(C)cc5n4)c(C)c3)c(C)c2)cc1`
A. > 5%

Next:
Q. Tell me the measured Solubility L of `COc1cc(N=Nc2ccc(N(C)C)cc2)ccc1N=Nc1ccc(-n2nc(C)c(C)n2)cc1` , please.
A. 0,7%

---

What Solubility L was measured for each of the following?
# EXPERIMENT_DESCRIPTION: solubility L in ZLI 1840 at room temperature
# Assay type: physicochemical
# STATED_CONDITIONS: ZLI 1840 (Merck), stirred 1 week

Consider the reported Solubility L for these compounds:
Q. Tell me the measured Solubility L of Cc1ccc2nn(-c3ccc(N=Nc4ccc(N=Nc5ccc(N(C)C)cc5C)cc4C)cc3C)nc2c1 [Example 26] , please.
A. 2,0%

Q. # iterate: CCCCOC(=O)c1ccc2nn(-c3ccc(N=Nc4cc(C)c(N=Nc5ccc(N(C)C)cc5)cc4C)cc3C)nc2c1 [Example 19]
A. 0,3%

Q. # iterate: CCOC(=O)c1nn(-c2ccc(N=Nc3ccc(N=Nc4ccc(N(C)C)cc4)c4ccccc34)cc2)nc1C [Example 8]
A. 0,5%

Q. # iterate: CCCCc1ccc2nn(-c3ccc(N=Nc4ccc(N=Nc5ccc(N(C)C)cc5C)cc4C)cc3C)nc2c1 [Example 27]
A. 3,9%

Q. # iterate: Cc1ccc2nn(-c3ccc(N=Nc4ccc(N=Nc5ccc(NCc6ccccc6)cc5)cc4C)cc3C)nc2c1 [Example 23]
A. 1,9%

Q. # iterate: Cc1nn(-c2ccc(N=Nc3ccc(N=Nc4ccc(N(C)C)cc4)cc3)cc2)nc1C [Example 3]
A. 0,4%

Next:
Q. Tell me the measured Solubility L of Cc1ccc2nn(-c3ccc(N=Nc4cc(C)c(N=Nc5ccc(OCc6ccccc6)cc5C)cc4C)cc3C)nc2c1 [Example 17] , please.
A. 0,6%

---

What Degree of order S was measured for each of the following?
# EXPERIMENT_DESCRIPTION: degree of order S (dichroic ratio CR) in ZLI 1840 at room temperature
# Assay type: physicochemical
# Parameters: key: S = (CR-1)/(CR+2), with CR = E∥/E⊥ dichroic ratio
# STATED_CONDITIONS: ZLI 1840 wide-range mixture (Merck)

Consider the reported Degree of order S for these compounds:
Q. Tell me the measured Degree of order S of `CCCCOC(=O)c1ccc2nn(-c3ccc(N=Nc4cc(C)c(N=Nc5ccc(N(C)C)cc5)cc4C)cc3C)nc2c1` , please.
A. 0,76

Q. # iterate: `Cc1ccc2nn(-c3ccc(N=Nc4cc(C)c(N=Nc5ccc(OCc6ccccc6)cc5C)cc4C)cc3C)nc2c1`
A. 0,74

Q. # iterate: `CCCCOc1ccc(N=Nc2ccc(N=Nc3ccc(-n4nc5ccc(C)cc5n4)c(C)c3)c(C)c2)c(C)c1`
A. 0,74

Q. # iterate: `Cc1ccc2nn(-c3ccc(N=Nc4cc(C)c(N=Nc5ccc(N(C)C)cc5)cc4C)cc3)nc2c1`
A. 0,73

Next:
Q. Tell me the measured Degree of order S of `CCCCc1ccc2nn(-c3ccc(N=Nc4ccc(N=Nc5ccc(N(C)C)cc5C)cc4C)cc3C)nc2c1` , please.
A. 0,75

Just for reference, patent US4667019A is where these values come from.
